Can you tell me MIC for the items I'm about to list?
system: Proteus vulgaris ATCC 6897; test: Agar dilution MIC, pH 8.0: Proteus vulgaris ATCC 6897; format: cell-based; settings: ATCC6897, agar-dilution method, pH 8.0, read-out: Minimum Inhibitory Concentration
Numbers only, in µg/mL.

// worked examples, MIC included
Task: Quick one: MIC of CNC[C@@H]1CC[C@@H](NC(=O)[C@@H](O)CCN)[C@@H](O[C@H]2[C@H](O)[C@@H](O[C@H]3OC[C@](C)(O)[C@H](NC)[C@H]3O)[C@H](N)C[C@@H]2NC(=O)[C@@H](O)CCN)O1 ?
Output: 0.521

Task: Follow-up entry: CNC[C@@H]1CC[C@@H](N)[C@@H](O[C@H]2[C@H](O)[C@@H](O[C@H]3OC[C@](C)(O)[C@H](NC)[C@H]3O)[C@H](NC(=O)[C@@H](O)CCN)C[C@@H]2N)O1
Output: 0.065

Task: CNC[C@@H]1CC[C@@H](NC(=O)[C@@H](O)CCN)[C@@H](O[C@H]2[C@H](O)[C@@H](O[C@H]3OC[C@](C)(O)[C@H](NC)[C@H]3O)[C@H](N)C[C@@H]2N)O1 ?
Output: 0.39

For each of the items listed, what is its MIC?
1. CNC[C@@H]1CC[C@@H](N)[C@@H](O[C@H]2[C@H](O)[C@@H](O[C@H]3OC[C@](C)(O)[C@H](NC)[C@H]3O)[C@H](N)C[C@@H]2N)O1
2. CNC[C@@H]1CC[C@@H](NC(=O)[C@@H](O)CCN)[C@@H](O[C@H]2[C@H](O)[C@@H](O[C@H]3OC[C@](C)(O)[C@H](NC)[C@H]3O)[C@H](NC(=O)[C@@H](O)CCN)C[C@@H]2N)O1

Output:
[0.033, 0.521]

====

Give measured MIC for each item. Keep answers brief.
test system: Staphylococcus aureus ATCC 6538P; experiment: Agar dilution MIC, pH 8.0: Staphylococcus aureus ATCC 6538P; format: cell-based; details: ATCC6538P, agar-dilution method, pH 8.0, read-out: Minimum Inhibitory Concentration
Give bare numbers, in µg/mL.

Task: Can you look up MIC on Staphylococcus aureus ATCC 6538P for CNC[C@@H]1CC[C@@H](NC(=O)[C@@H](O)CCN)[C@@H](O[C@H]2[C@H](O)[C@@H](O[C@H]3OC[C@](C)(O)[C@H](NC)[C@H]3O)[C@H](N)C[C@@H]2NC(=O)[C@@H](O)CCN)O1 ?
Output: 0.13

Kindly give each listed record's MIC.
1. CNC[C@@H]1CC[C@@H](NC(=O)[C@@H](O)CCN)[C@@H](O[C@H]2[C@H](O)[C@@H](O[C@H]3OC[C@](C)(O)[C@H](NC)[C@H]3O)[C@H](NC(=O)[C@@H](O)CCN)C[C@@H]2N)O1
2. CNC[C@@H]1CC[C@@H](N)[C@@H](O[C@H]2[C@H](O)[C@@H](O[C@H]3OC[C@](C)(O)[C@H](NC)[C@H]3O)[C@H](NC(=O)[C@@H](O)CCN)C[C@@H]2N)O1
3. CNC[C@@H]1CC[C@@H](NC(=O)[C@@H](O)CCN)[C@@H](O[C@H]2[C@H](O)[C@@H](O[C@H]3OC[C@](C)(O)[C@H](NC)[C@H]3O)[C@H](N)C[C@@H]2N)O1

Output:
1. 0.065
2. 0.016
3. 0.05

====

tested on: Shigella seanei ATCC 9250; assay: microbe, parasite or virus in culture; format: cell-based; conditions: ATCC9250, agar-dilution method, pH 8.0, read-out: Minimum Inhibitory Concentration
ASSAY READOUT: MIC (µg/mL)
One number for each entry, in µg/mL.

Task: Form entry - test system: Shigella seanei ATCC 9250; read-out: MIC; compound: CNC[C@@H]1CC[C@@H](N)[C@@H](O[C@H]2[C@H](O)[C@@H](O[C@H]3OC[C@](C)(O)[C@H](NC)[C@H]3O)[C@H](N)C[C@@H]2N)O1
Output: 0.033

Task: Try this compound next: CNC[C@@H]1CC[C@@H](NC(=O)[C@@H](O)CCN)[C@@H](O[C@H]2[C@H](O)[C@@H](O[C@H]3OC[C@](C)(O)[C@H](NC)[C@H]3O)[C@H](NC(=O)[C@@H](O)CCN)C[C@@H]2N)O1
Output: 0.26

Task: Same lookup for CNC[C@@H]1CC[C@@H](NC(=O)[C@@H](O)CCN)[C@@H](O[C@H]2[C@H](O)[C@@H](O[C@H]3OC[C@](C)(O)[C@H](NC)[C@H]3O)[C@H](N)C[C@@H]2NC(=O)[C@@H](O)CCN)O1 , please.
Output: 0.26

Further cases:
Task: Hello, I am looking for reported MIC with Shigella seanei ATCC 9250 for CNC[C@@H]1CC[C@@H](NC(=O)[C@@H](O)CCN)[C@@H](O[C@H]2[C@H](O)[C@@H](O[C@H]3OC[C@](C)(O)[C@H](NC)[C@H]3O)[C@H](N)C[C@@H]2N)O1 . Could you help?
Output: 0.39
